- TESTED_TARGET: thrombin (alpha-thrombin) (UniProt P00734;P00734 328-363;364-622)
- ASSAY_COMMENT: competition (FAM fluorescence displacement); fit of pair TBA-FAM/TBA; 100 mM KCl; Fluorescence assays: 10 mM sodium cacodylate pH 7.2, 100 mM KCl, 20 °C, 20 nM FAM-aptamer (100 nM thrombin in displacement); EMSA: 1xTBE pH 8.3, 100 mM KCl (ann)
# Kd annotations
OBSERVED_PROPERTY: Kd

>>> print(df.to_string())
                                     binder  measured
0  GGTTGGTGTGGTTGG (structured_DNA, 3' hexaethyleneglycol linker) [TBA-FAM]   11.3 nM
1    GGTTGGTGTGGTTGG (structured_DNA) [TBA]   15.8 nM
